molecular target: T1, YAP1^WW1 (as used in ITC) (UniProt P46937 174-204); assay: ITC; 25 °C, PEAQ-ITC; 10 mM NF1^PPQY peptide injected (20 injections of 2 μl) into 1 mM YAP1^WW1 or YAP1^WW2; 10 mM Tris pH 8.0, 100 mM NaCl; one-site binding model; settings: both partners purified
T1 construct: Yes-associated protein 1 (YAP1), first WW domain; the label YAP1^WW1 is defined as residues 174-204 in the pull-down methods; The ITC methods name only YAP1^WW1
T1 sequence (P46937 174-204): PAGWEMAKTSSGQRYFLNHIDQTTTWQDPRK
MEASUREMENT NAME: Kd
// return the numeric value with its unit appended

Request: Returns the measured Kd for the input binder. Input: EESPPQYQTS (also called NF1 peptides; source: synthetic peptide (Scilight-Peptide, China)) [NF1^PPQY peptide (residues 2671-2680: EESPPQYQTS)]
Response: 320 µM
